- Test system: L cells
- ASSAY: Percentage of L cell growth at 100 uM nucleosides after 4 days.
- Type: functional, Mus musculus, L929
Can you tell me Control for the items I'm about to list?
Number in %, nothing else.

CC[C@@H](C)Oc1ncnc2c1ncn2[C@H]1CC[C@@H](CO)O1 tested on L cells gave Control: 81

I looked up CCCCCCOc1ncnc2c1ncn2C1CCC(CO)O1 (stereo not drawn) and its Control for L cells was 42

Noted Control for OCC1CCC(n2cnc3c(OCC(F)(F)F)ncnc32)O1 (stereo not drawn) , tested on L cells: 82

Entry C/C=C/COc1ncnc2c1ncn2C1CCC(CO)O1 (stereo not drawn) , L cells data, Control value: 58

Tested on L cells, the item CC(C)Oc1ncnc2c1ncn2C1CCC(CO)O1 (stereo not drawn) showed Control equal to 72

Noted Control for COc1ncnc2c1ncn2C1CCC(CO)O1 (stereo not drawn) , tested on L cells: 96

Assay L cells, sample CCCC(C)Oc1ncnc2c1ncn2C1CCC(CO)O1 (stereo not drawn) , Control read: 67

Control of CCCOc1ncnc2c1ncn2C1CCC(CO)O1 (stereo not drawn) , assay on L cells, is 87

GET /values?item= CCC(CC)Oc1ncnc2c1ncn2C1CCC(CO)O1 (stereo not drawn) &system= L cells returns Control: 68

Form field Control for item CCCCCOc1ncnc2c1ncn2C1CCC(CO)O1 (stereo not drawn) on L cells: 48

Reported L cells Control for item CCOc1ncnc2c1ncn2C1CCC(CO)O1 (stereo not drawn) was 90

Form field, Control with L cells, item C=CCOc1ncnc2c1ncn2C1CCC(CO)O1 (stereo not drawn) : 70

Tested system L cells; Control recorded for CC(C)COc1ncnc2c1ncn2C1CCC(CO)O1 (stereo not drawn) was 98

====

- Tested on: L cells
- ASSAY: Percentage of L cell growth at 100 uM nucleosides after 4 days.
- Type: functional, Mus musculus, L929
Please go through the items and note down their Control.
Write the answer as a number in %, unit excluded.

Query CCCCOc1ncnc2c1ncn2C1CCC(CO)O1 (stereo not given) yields Control of 68

Noted for CCC(C)Oc1ncnc2c1ncn2[C@H]1CC[C@@H](CO)O1 (stereo not given in full) : its Control reads 77

The value of Control measured for the molecule CC[C@H](C)Oc1ncnc2c1ncn2[C@H]1CC[C@@H](CO)O1 turned out to be 85

Entry under test: O=c1[nH]cnc2c1ncn2[C@H]1CC[C@@H](CO)O1 [DIDANOSINE] . Its Control was 100

Control measured on OCC1CCC(n2cnc3c(OCCF)ncnc32)O1 (stereo not given) = 100

====

For each of the compounds below, state its pIC50.
- Tested on: MT4
- ASSAY: Effect of Coformycin on the Anti-HIV activity in MT-4 cells
- Assay type: functional, cell-based
- ASSAY CONDITIONS: Homo sapiens
pIC50: −log10 of the molar value.

Reported pIC50 ( CCCCOc1ncnc2c1ncn2C1CCC(CO)O1 (stereo not drawn) ) = < 3.70

pIC50 recorded for this compound, C/C=C/COc1ncnc2c1ncn2C1CCC(CO)O1 (stereo not drawn) , is < 3.70

Per the record, CCCCCCOc1ncnc2c1ncn2C1CCC(CO)O1 (stereo not drawn) has pIC50 of < 3.70

====

- System: MT4
- ASSAY: Anti-Human immunodeficiency virus activity against MT-4 cells
- Assay type: functional, cell-based
Hi there, I'd appreciate the recorded pIC50 for every entry that follows.
Remember the convention: pIC50 equals -log10 of concentration in molar.

Input CCCCCOc1ncnc2c1ncn2C1CCC(CO)O1 (configuration not stated) . Output pIC50: 4.30

So for C/C=C/COc1ncnc2c1ncn2C1CCC(CO)O1 (configuration not stated) , the logged pIC50 turned out to be 4.23

Documented pIC50 of CCCCCCOc1ncnc2c1ncn2C1CCC(CO)O1 (configuration not stated) : 4.74

The recorded pIC50 for CC[C@H](C)Oc1ncnc2c1ncn2[C@H]1CC[C@@H](CO)O1 is 4.10

Entry under test: CCCCCCCOc1ncnc2c1ncn2C1CCC(CO)O1 (configuration not stated) . Its pIC50 was 4.60

Sample CCCCOc1ncnc2c1ncn2C1CCC(CO)O1 (configuration not stated) ; pIC50 observed: 4.15

Record CCCC(C)Oc1ncnc2c1ncn2C1CCC(CO)O1 (configuration not stated) , field pIC50: 4.10

Reported pIC50 of O=c1[nH]cnc2c1ncn2[C@H]1CC[C@@H](CO)O1 : 4.64

So, CC(C)COc1ncnc2c1ncn2C1CCC(CO)O1 (configuration not stated) ? Its pIC50 was 4.28

Value of measured pIC50 for the entry C=CCOc1ncnc2c1ncn2C1CCC(CO)O1 (configuration not stated) : 4.01

Recorded pIC50 (compound CC(C)Oc1ncnc2c1ncn2C1CCC(CO)O1 (configuration not stated) ): 4.00
